# System name: α-Glucosidase from Saccharomyces cerevisiae
# Protocol notes: α-Glycosidase inhibition assay with pNPG substrate
# Assay context: mean ± SEM; read-out: α-GLY IC50
Attribute measured: IC50 (µM)

In [3]: df
Out[3]:
                                   molecule  endpoint_result
0  O=C(CSc1nnc(NC2CCCCC2)s1)N(Cc1ccc([N+](=O)[O-])cc1)c1ccc(F)cc1 [6o]             34.6

(1) CCNc1nnc(SCC(=O)N(Cc2ccc([N+](=O)[O-])cc2)c2ccc(Cl)cc2)s1 [6a]
(2) CC(C)CNc1nnc(SCC(=O)N(Cc2ccc([N+](=O)[O-])cc2)c2ccc(Cl)cc2)s1 [6e]
(3) Cc1ccc(Nc2nnc(SCC(=O)N(Cc3ccc([N+](=O)[O-])cc3)c3ccc(F)cc3)s2)cc1 [6q]
Parameters: sort_field (IC50), sort_dir (desc). Please respond by ranking the labels in the order requested.
2, 1, 3
(2: 99 µM, 1: 12.6 µM, 3: 8.15 µM)

###

# System name: α-Glucosidase from Saccharomyces cerevisiae
# Protocol notes: α-Glycosidase inhibition assay with pNPG substrate
# Assay context: mean ± SEM; read-out: α-GLY IC50
Attribute measured: IC50 (µM)

// solved cases for IC50 follow
>>> print(df.to_string())
                  compound_structure_string                               system_name  attribute_measured  endpoint_result
0  COCCNc1nnc(SCC(=O)N(Cc2ccc([N+](=O)[O-])cc2)c2ccc(F)cc2)s1  α-Glucosidase from Saccharomyces cerevisiae                IC50             16.5
1  O=C(CSc1nnc(Nc2ccccc2)s1)N(Cc1ccc([N+](=O)[O-])cc1)c1ccc(Cl)cc1  α-Glucosidase from Saccharomyces cerevisiae                IC50             12.2
2  Cc1ccc(Nc2nnc(SCC(=O)N(Cc3ccc([N+](=O)[O-])cc3)c3ccc(Cl)cc3)s2)cc1  α-Glucosidase from Saccharomyces cerevisiae                IC50             4.68

(A) O=C(CSc1nnc(NC2CCCCC2)s1)N(Cc1ccc([N+](=O)[O-])cc1)c1ccc(Cl)cc1
(B) O=C(CSc1nnc(Nc2ccccc2)s1)N(Cc1ccc([N+](=O)[O-])cc1)c1ccc(F)cc1
Could you determine which record has the numerically smaller IC50? Candidates: A and B Please indicate the selected item by its label.
B
(B: 8.25 µM, A: 347 µM)

###

# System name: α-Glucosidase from Saccharomyces cerevisiae
# Protocol notes: α-Glycosidase inhibition assay with pNPG substrate
# Assay context: Lineweaver–Burk plots; read-out: α-GLY KI
pKi: −log10 of the molar value.
Attribute measured: pKi

A selection of reference data follows.
>>> print(df.to_string())
                                   molecule  attribute_measured  endpoint_result
0  O=C(CSc1nnc(Nc2ccccc2)s1)N(Cc1ccc([N+](=O)[O-])cc1)c1ccc(F)cc1 [6p]                 pKi             5.08
1  Cc1ccc(Nc2nnc(SCC(=O)N(Cc3ccc([N+](=O)[O-])cc3)c3ccc(F)cc3)s2)cc1 [6q]                 pKi             5.10

(I) O=C(CSc1nnc(NC2CCCCC2)s1)N(Cc1ccc([N+](=O)[O-])cc1)c1ccc(Cl)cc1 [6f]
(II) CC(C)CNc1nnc(SCC(=O)N(Cc2ccc([N+](=O)[O-])cc2)c2ccc(Cl)cc2)s1 [6e]
(III) CCNc1nnc(SCC(=O)N(Cc2ccc([N+](=O)[O-])cc2)c2ccc(Cl)cc2)s1 [6a]
Output the entries ranked by pKi from maximum down to minimum. State the ranking by listing the labels in the requested order.
III, II, I
(III: 4.93, II: 4.02, I: 3.47)

###

Recorded pIC50 values for a group of compounds are listed next.
# System name: α-Glucosidase from Saccharomyces cerevisiae
# Protocol notes: α-Glycosidase inhibition assay with pNPG substrate
# Assay context: mean ± SEM; read-out: α-GLY IC50
# Description: α-Glucosidase activity (α-Glucosidase from Saccharomyces cerevisiae) was assessed using p-nitrophenyl-D-glycopyranoside (pNPG) as the substrate, following the procedure outlined by Tao et al.[60],[61] […] Absorbance was measured spectrophotometrically at 405 nm. Furthermore, the types of inhibition and inhibition constants (KI) were calculated from Lineweaver–Burk plots, providing detailed insights into the kinetic properties of these inhibitors.[62],[63]
pIC50: −log10 of the molar value.

In the examples that follow, each entry is paired with its recorded pIC50.
                                   compound  endpoint_result
0  CCCNc1nnc(SCC(=O)N(Cc2ccc([N+](=O)[O-])cc2)c2ccc(F)cc2)s1 [6k]           < 3.30
1  CCCCNc1nnc(SCC(=O)N(Cc2ccc([N+](=O)[O-])cc2)c2ccc(F)cc2)s1 [6m]           < 3.30

Consider the record given below.
Endpoint output: pIC50 of CC(C)Nc1nnc(SCC(=O)N(Cc2ccc([N+](=O)[O-])cc2)c2ccc(F)cc2)s1 [6l] . Value?
< 3.30

###

# System name: α-Glucosidase from Saccharomyces cerevisiae
# Protocol notes: α-Glycosidase inhibition assay with pNPG substrate
# Assay context: Lineweaver–Burk plots; read-out: α-GLY KI
pKi: −log10 of the molar value.
Attribute measured: pKi

>>> df
                  compound_structure_string  endpoint_result
0  COCCNc1nnc(SCC(=O)N(Cc2ccc([N+](=O)[O-])cc2)c2ccc(F)cc2)s1             4.80
1  O=C(CSc1nnc(Nc2ccccc2)s1)N(Cc1ccc([N+](=O)[O-])cc1)c1ccc(Cl)cc1             4.92
2  O=C(CSc1nnc(NC2CCCCC2)s1)N(Cc1ccc([N+](=O)[O-])cc1)c1ccc(F)cc1             4.90
3  Cc1ccc(Nc2nnc(SCC(=O)N(Cc3ccc([N+](=O)[O-])cc3)c3ccc(Cl)cc3)s2)cc1             5.35
